Attribution: patent US20250171459A1

# TARGET OF ASSAY: APOL1 (Homo sapiens)
# Sequence (O14791 1-398 S342G/I384M): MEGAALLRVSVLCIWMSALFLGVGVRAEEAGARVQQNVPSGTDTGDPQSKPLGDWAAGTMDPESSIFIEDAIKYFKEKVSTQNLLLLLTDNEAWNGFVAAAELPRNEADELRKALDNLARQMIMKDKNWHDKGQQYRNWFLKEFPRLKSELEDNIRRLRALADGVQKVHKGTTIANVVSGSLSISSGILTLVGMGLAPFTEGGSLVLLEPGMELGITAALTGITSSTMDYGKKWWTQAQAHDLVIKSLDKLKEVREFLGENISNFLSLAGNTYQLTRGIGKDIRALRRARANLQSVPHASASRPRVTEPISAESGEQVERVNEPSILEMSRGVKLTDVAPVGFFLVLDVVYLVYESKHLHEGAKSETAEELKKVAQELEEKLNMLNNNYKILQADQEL
# PROCEDURE SUMMARY: MultiTox-Fluor Multiplex Cytotoxicity Assay in tet-inducible APOL1 T-REx-HEK293 cells (cell rescue, ratio of dead to live cells)
# CONDITION: tet-inducible transgenic APOL1 T-REx-HEK293 cell lines, 50 ng/mL tet, 24 hours; read-out: IP50 (i.e., IC50 for cell proliferation)
pIC50: −log10 of the molar value.
ATTRIBUTE MEASURED: pIC50

> print(dat)
                                    compound  attribute.measured  observed.measurement
 1  CCc1cc2c(s1)CCO[C@@]21CCN(CC2CN(C(=O)[C@H]3CCC(=O)N3)C2)[C@@H](C)C1 [Compound 487]               pIC50          6.30 to 7.00
 2  CCc1cc2c(s1)CCO[C@@]21CCN(C[C@H]2C[C@@H](NC(=O)CC3CC(F)(F)C3)C2)[C@@H](C)C1 [Compound 338]               pIC50                > 7.00
 3  CCc1cc2c(s1)CCO[C@@]21CCN(CC2CN(C(=O)CCCS(C)(=O)=O)C2)[C@@H](C)C1 [Compound 435]               pIC50                > 7.00
 4  CCc1cc2c(s1)CCO[C@@]21CCN(C[C@H]2C[C@@H](NS(C)(=O)=O)C2)[C@@H](C)C1 [Compound 410]               pIC50                > 7.00
 5  CCc1cc2c(s1)CCO[C@@]21CCN(CC(O)C(N)=O)[C@@H](C)C1 (stereo partly drawn) [Compound 240]               pIC50          6.30 to 7.00
 6  C[C@H]1C[C@@]2(CCN1Cc1cccc(F)c1O)OC[C@H](O)c1cc(Cl)sc12 [Compound 801]               pIC50          6.00 to 6.30
 7  CCc1cc2c(s1)CCO[C@@]21CCN(Cc2cn(Cc3cnoc3)nn2)[C@@H](C)C1 [Compound 45]               pIC50                > 7.00
 8  CCc1cc2c(s1)CCO[C@@]21CCN(Cc2ccc(NS(C)(=O)=O)cc2)[C@@H](C)C1 [Compound 274]               pIC50                > 7.00
 9  CCc1cc2c(s1)CCO[C@@]21CCN(C[C@H]2C[C@@H](NC(=O)CNS(=O)(=O)CC)C2)[C@@H](C)C1 [Compound 353]               pIC50                > 7.00
10  Cc1cc2c(s1)CCO[C@@]21CCN(C2COCC2O)[C@@H](C)C1 (single isomer, unassigned) [Compound 500]               pIC50                > 7.00
11  CCc1cc2c(s1)CCO[C@@]21CCN(CCn2cccn2)[C@@H](C)C1 [Compound 286]               pIC50          6.00 to 6.30
12  Cc1nccn1-c1ccc(CN2CC[C@]3(C[C@@H]2C)OCCc2c3sc(Cl)c2CO)cc1 [Compound 717]               pIC50          6.30 to 7.00
13  CCc1cc2c(s1)CCO[C@@]21CCN(C[C@H]2C[C@@H](NC(=O)OC(C)(C)C)C2)[C@@H](C)C1 [Compound 1039]               pIC50                > 7.00
14  CCc1cc2c(s1)CCO[C@@]21CCN(Cc2cn(C3(CO)COC3)nn2)[C@@H](C)C1 [Compound 147]               pIC50          6.00 to 6.30
15  CCc1cc2c(s1)CCO[C@@]21CCN(CC2CN(C(=O)CC3CCS(=O)(=O)CC3)C2)[C@@H](C)C1 [Compound 444]               pIC50                > 7.00

====

# TARGET OF ASSAY: APOL1 (Homo sapiens, UniProt O14791)
# PROCEDURE SUMMARY: MultiTox-Fluor Multiplex Cytotoxicity Assay in tet-inducible APOL1 T-REx-HEK293 cells (cell rescue, ratio of dead to live cells)
# CONDITION: tet-inducible transgenic APOL1 T-REx-HEK293 cell lines, 50 ng/mL tet, 24 hours; read-out: IP50 (i.e., IC50 for cell proliferation)
# Description: The MultiTox-Fluor Multiplex Cytotoxicity Assay is a single-reagent-addition, homogeneous, fluorescence assay that measures the number of live and dead cells simultaneously in culture wells. […] The MultiTox reagent was added to each well and placed back in the incubator for an additional 30 minutes. The plate was read on the EnVision plate reader. A ratio of dead to live cells was used to normalize, and data was imported, analyzed, and fit using Genedata Screener (Basel, Switzerland) software. […]
ATTRIBUTE MEASURED: IC50

> print(dat)
                                   compound  observed.measurement
1  CCc1cc2c(s1)CCO[C@@]21CCN(Cc2cn(CC(O)Cc3ccc(F)cc3)nn2)[C@@H](C)C1 (stereo partly shown)              < 0.1 µM
2  CCc1cc2c(s1)CCO[C@@]21CCN(Cc2cn([C@H]3C[C@@](C)(O)C3)nn2)[C@@H](C)C1         0.1 to 0.5 µM
3  CCc1cc2c(s1)CCOC21CCN(Cc2cn(CC3CNC(=O)O3)nn2)CC1 (stereo not shown)           0.5 to 1 µM
4  CCc1cc2c(s1)CCO[C@@]21CCN(Cc2cnc(N[C@@H]3CCCC[C@H]3O)nc2)[C@@H](C)C1              < 0.1 µM
5  CCc1cc2c(s1)CCO[C@@]21CCN(Cc2ccc(Cl)nc2)[C@@H](C)C1              < 0.1 µM
6  C[C@H]1C[C@@]2(CCN1Cc1cnn(CCS(C)(=O)=O)c1)OCC(O)c1cc(C(F)(F)C(F)F)sc12 (single isomer, unassigned) [Compound 1013]              < 0.1 µM
7  CCc1cc2c(s1)CCO[C@@]21CCN(C[C@H]2C[C@@H](NS(=O)(=O)C3CC3)C2)[C@@H](C)C1              < 0.1 µM

====

# TARGET OF ASSAY: APOL1 (Homo sapiens)
# PROCEDURE SUMMARY: MultiTox-Fluor Multiplex Cytotoxicity Assay in tet-inducible APOL1 T-REx-HEK293 cells (cell rescue, ratio of dead to live cells)
# CONDITION: tet-inducible transgenic APOL1 T-REx-HEK293 cell lines, 50 ng/mL tet, 24 hours; read-out: IP50 (i.e., IC50 for cell proliferation)
# Procedure: The MultiTox-Fluor Multiplex Cytotoxicity Assay is a single-reagent-addition, homogeneous, fluorescence assay that measures the number of live and dead cells simultaneously in culture wells. […] The MultiTox reagent was added to each well and placed back in the incubator for an additional 30 minutes. The plate was read on the EnVision plate reader. A ratio of dead to live cells was used to normalize, and data was imported, analyzed, and fit using Genedata Screener (Basel, Switzerland) software. […]
Reported IC50 by item:
ATTRIBUTE MEASURED: IC50

> print(dat)
                                    compound  attribute.measured  observed.measurement
 1  C[C@H]1C[C@@]2(CCN1Cc1ccc(NS(C)(=O)=O)cc1)OC[C@H](O)c1cc(Cl)sc12 [Compound 780]                IC50              < 100 nM
 2  C[C@H]1C[C@@]2(CCN1Cc1cnn(C)c1)OCCc1cc(C(C)(C)C)sc12 [Compound 1020]                IC50        500 to 1000 nM
 3  CCc1cc2c(s1)CCOC21CCN(Cc2cn(C3CC(O)C3(C)C)nn2)CC1 (stereo not shown) [Compound 1094]                IC50        500 to 1000 nM
 4  CCc1cc2c(s1)CCO[C@@]21CCN(C[C@H]2C[C@@H](N)C2)[C@@H](C)C1 [Compound 299]                IC50         100 to 500 nM
 5  Cc1cc2c(s1)CCO[C@@]21CCN(Cc2cn(CCS(C)(=O)=O)nn2)[C@@H](C)C1 [Compound 510]                IC50              < 100 nM
 6  CCc1cc2c(s1)CCOC21CCN(Cc2ccc(N3C[C@@H](O)[C@H](O)C3)nc2)CC1 [Compound 1066]                IC50              < 100 nM
 7  C[C@H]1C[C@@]2(CCN1Cc1cncc(F)c1)OC[C@H](O)c1cc(Cl)sc12 [Compound 784]                IC50         100 to 500 nM
 8  CCc1cc2c(s1)CCO[C@@]21CCN(Cc2cn(CC(N)=O)nn2)[C@@H](C)C1 [Compound 181]                IC50         100 to 500 nM
 9  C[C@H]1C[C@@]2(CCN1Cc1ccc(C(=O)N(C)C)cc1)OC[C@H](O)c1cc(Cl)sc12 [Compound 810]                IC50         100 to 500 nM
10  CCc1cc2c(s1)CCOC21CCN(Cc2cn(CC(C)(O)COC)nn2)C(C)C1 (stereo not shown) [Compound 84]                IC50              < 100 nM
11  CCc1cc2c(s1)CCO[C@@]21CCN(Cc2cn(CCCS(C)(=O)=O)nn2)[C@@H](C)C1 [Compound 183]                IC50              < 100 nM
12  CCc1cc2c(s1)CCO[C@@]21CCN(Cc2cc(C)on2)[C@@H](C)C1 [Compound 287]                IC50              < 100 nM
13  CCc1cc2c(s1)CCO[C@@]21CCN(Cc2cnc(NCCN3CCNC3=O)nc2)[C@@H](C)C1 [Compound 221]                IC50              < 100 nM
14  C[C@H]1C[C@@]2(CCN1Cc1ccc(N(CCO)CCO)cc1)OCCc1cc(Cl)sc12 [Compound 636]                IC50              < 100 nM
15  C[C@H]1C[C@@]2(CCN1CC1(O)CCS(=O)(=O)CC1)OCCc1cc(CC(F)F)sc12 [Compound 606]                IC50         100 to 500 nM
16  CCc1cc2c(s1)CCOC21CCN(Cc2cnn(C)c2)CC1 [Compound 1138]                IC50         100 to 500 nM
